Ref: ChEMBL document CHEMBL1201862

- Test system: HOP-92
- protocolNotes: NCI tumour cell line growth inhibition, 48 h
The source made the active and inactive calls. Rule as the data show it: active = GI50 up to about 1.1 µM and inactive = higher.
Permitted responses: yes (1) = active, no (0) = inactive

| compound | discreteLabel |
| --- | --- |
| CN(C)CCn1c(=O)c2ccc(NCCN3CCNCC3)c3c(=O)c4ccccc4n(c1=O)c23 | yes (1) |
| COc1c(C)c(OC)c2c(c1O)[C@@H]1[C@@H]3Cc4c(OC)c(C)c(OC)c(O)c4[C@H](CNC(=O)c4cnc5ccccc5n4)N3[C@@H](C#N)[C@H](C2)N1C | yes (1) |
| CCOC(=O)/C=C(/C(=O)OCC)n1cc(C)c(=O)n(/C(=C/C(=O)OCC)C(=O)OCC)c1=O | no (0) |

Here's the next entry for you.
Query: recorded result category for N=C(N)c1ccc(OCCCCCOc2ccc(C(=N)N)cc2)cc1 [PENTAMIDINE] in this test
no (0)
